Molecular target: Thyrotropin receptor (Homo sapiens)
Assay: qHTS assay to identify small molecule antagonists of the thyroid stimulating hormone receptor (TSHR) signaling pathway (AID 1259385); also: nearly all actives have a fitted effect of over 20% in size
Settings: TSHR-HEK293 cAMP HTRF, TSH-stimulated antagonist mode; series mostly up to 92.4 µM
Results filed as inconclusive are left out. Activity calls are given as the source filed them. Calls follow the shape of the full dose curve.
Thanks in advance; please answer with one of these: true = active, false = inactive

[Q] Returns: the outcome recorded for "Oc1cc(Cl)c(Cl)c(Cl)c1" in this assay.
[A] false

[Q] Per the assay record, what outcome was assigned to "CCN(CC)C(=S)[S-].CCN(CC)C(=S)[S-].[Zn+2]" ?
[A] true

====

Target: Voltage-gated inwardly rectifying potassium channel KCNH2 (Homo sapiens) (UniProt Q12809)
Sequence (Q12809 whole entry, looked up): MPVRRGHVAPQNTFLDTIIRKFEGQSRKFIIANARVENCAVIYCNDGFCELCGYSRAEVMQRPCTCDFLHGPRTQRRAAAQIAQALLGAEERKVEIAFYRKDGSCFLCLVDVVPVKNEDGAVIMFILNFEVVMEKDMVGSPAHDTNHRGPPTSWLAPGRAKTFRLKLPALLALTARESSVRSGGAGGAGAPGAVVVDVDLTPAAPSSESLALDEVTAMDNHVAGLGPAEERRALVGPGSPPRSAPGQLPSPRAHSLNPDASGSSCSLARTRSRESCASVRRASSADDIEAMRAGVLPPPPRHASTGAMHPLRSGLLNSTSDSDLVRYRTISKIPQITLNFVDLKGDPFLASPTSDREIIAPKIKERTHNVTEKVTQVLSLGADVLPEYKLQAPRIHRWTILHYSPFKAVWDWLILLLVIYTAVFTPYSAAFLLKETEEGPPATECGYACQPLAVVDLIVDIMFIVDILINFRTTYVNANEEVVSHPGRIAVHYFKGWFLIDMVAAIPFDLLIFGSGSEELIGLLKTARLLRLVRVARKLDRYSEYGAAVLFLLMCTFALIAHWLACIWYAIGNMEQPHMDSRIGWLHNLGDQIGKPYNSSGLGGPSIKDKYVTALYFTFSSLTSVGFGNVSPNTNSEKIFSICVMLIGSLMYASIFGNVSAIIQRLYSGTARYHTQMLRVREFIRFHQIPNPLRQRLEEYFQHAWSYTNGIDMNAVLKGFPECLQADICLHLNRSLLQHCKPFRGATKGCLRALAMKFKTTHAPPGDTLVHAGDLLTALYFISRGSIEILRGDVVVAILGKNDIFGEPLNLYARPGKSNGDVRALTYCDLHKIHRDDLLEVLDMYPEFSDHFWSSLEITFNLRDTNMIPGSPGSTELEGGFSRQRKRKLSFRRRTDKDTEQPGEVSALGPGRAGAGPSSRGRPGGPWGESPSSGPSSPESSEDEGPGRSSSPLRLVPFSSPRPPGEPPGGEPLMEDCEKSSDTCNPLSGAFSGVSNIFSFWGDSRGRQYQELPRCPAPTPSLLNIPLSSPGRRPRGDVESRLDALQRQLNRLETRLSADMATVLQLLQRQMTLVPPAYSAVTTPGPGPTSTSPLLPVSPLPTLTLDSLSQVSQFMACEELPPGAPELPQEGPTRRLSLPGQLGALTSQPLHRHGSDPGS
Assay: Human Ether-a-go-go-Related Gene (hERG) channel small molecule antagonists: fluorescence cell-based qHTS assay (AID 1671200); also: nearly all actives have a fitted effect of over 50% in size
Settings: hERG-U2OS cells, FluxOR thallium flux fluorescence; series mostly up to 76.8 µM
Records with an inconclusive call do not appear. Activity calls are given as the source filed them. The call rests on the fitted dose curve; in most records, active means well fitted inhibition curve with a large enough effect in the repeat runs; inconclusive means weak or mixed curves; inactive means flat fitted curve, though single readings scatter.
Answer with one of the outcomes given here: t = active, f = inactive

Before answering, review these 8 worked examples.
1) N#CCCO = f
2) ClC1=C(Cl)C2(Cl)C3C(Cl)C=CC3C1(Cl)C2(Cl)Cl (stereo not drawn) = t
3) CC(C)(C)OO = f
4) Nc1c(Oc2ccccc2)cc(O)c2c1C(=O)c1ccccc1C2=O = f
5) SCc1ccco1 = f
6) Nc1ccc([N+](=O)[O-])cc1Cl = f
7) O=C1C=CC(=O)c2ccccc21 = t
8) Cc1cc(Cl)ccc1O[C@H](C)C(=O)O = f

[Q] Look up the recorded call for "CCN(CC)C(=S)[S-].CCN(CC)C(=S)[S-].[Zn+2]" in this test.
[A] t

[Q] State the result this test recorded for "CC1(C)[C@H](C(=O)O[C@H](C#N)c2cccc(Oc3ccccc3)c2)[C@@H]1/C=C(\Cl)C(F)(F)F" .
[A] f

[Q] Tell me the recorded outcome of this test for "CC(C)CBr" .
[A] f

[Q] Dear colleague, could you share the recorded outcome for "C=CC(=O)OCC(COC(=O)C=C)(COC(=O)C=C)COC(=O)C=C" when you have a moment?
[A] f

[Q] Returns: the outcome recorded for CC(C)CC(C)N (stereo not drawn) in this assay.
[A] f

[Q] Recorded call for "c1ccc(Nc2ccc3ccccc3c2)cc1" ?
[A] f

[Q] Recorded test call requested for "O=C(Nc1ccc2[nH]ccc2c1)c1cc2cc(F)ccc2n1Cc1cccc(F)c1"
[A] f

[Q] What outcome does the record of this test show for "COS(=O)(=O)c1ccc(C)cc1" ?
[A] f

[Q] Identify the outcome logged in this assay for the molecule shown: "Cc1cc(C)c(C2=C(OC(=O)CC(C)(C)C)C3(CCCC3)OC2=O)c(C)c1"
[A] f

[Q] Write down the call the test reported for this molecule. Item: "CC(C)Oc1cccc(NC(=O)c2ccccc2C(F)(F)F)c1"
[A] t

====

Biological target: Androgen receptor (Homo sapiens) (UniProt P10275)
Sequence (P10275 whole entry, looked up): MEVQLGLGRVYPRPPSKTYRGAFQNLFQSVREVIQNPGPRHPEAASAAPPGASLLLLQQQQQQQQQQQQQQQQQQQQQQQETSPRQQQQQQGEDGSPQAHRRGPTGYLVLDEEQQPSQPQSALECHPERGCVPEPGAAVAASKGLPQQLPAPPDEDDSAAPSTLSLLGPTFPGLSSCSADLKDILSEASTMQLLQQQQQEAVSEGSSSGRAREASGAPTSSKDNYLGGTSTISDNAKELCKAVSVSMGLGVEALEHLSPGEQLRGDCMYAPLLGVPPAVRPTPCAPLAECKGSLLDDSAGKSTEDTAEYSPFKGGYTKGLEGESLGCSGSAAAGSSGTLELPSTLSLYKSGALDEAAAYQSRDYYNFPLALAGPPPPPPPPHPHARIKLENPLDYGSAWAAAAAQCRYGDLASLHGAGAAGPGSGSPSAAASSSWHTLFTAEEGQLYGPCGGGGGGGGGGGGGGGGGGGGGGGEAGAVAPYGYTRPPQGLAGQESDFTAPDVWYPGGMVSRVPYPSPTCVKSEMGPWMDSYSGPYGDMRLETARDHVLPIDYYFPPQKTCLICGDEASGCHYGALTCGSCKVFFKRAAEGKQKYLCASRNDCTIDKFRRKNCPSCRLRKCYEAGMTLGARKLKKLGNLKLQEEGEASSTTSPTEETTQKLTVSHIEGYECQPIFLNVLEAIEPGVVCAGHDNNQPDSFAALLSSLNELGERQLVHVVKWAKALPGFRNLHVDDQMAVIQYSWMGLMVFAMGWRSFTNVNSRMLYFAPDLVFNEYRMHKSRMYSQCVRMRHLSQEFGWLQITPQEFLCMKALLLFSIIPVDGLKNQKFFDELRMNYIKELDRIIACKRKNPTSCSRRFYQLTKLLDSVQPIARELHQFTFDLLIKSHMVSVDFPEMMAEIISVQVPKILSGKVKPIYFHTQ
Assay: qHTS assay to identify small molecule agonists of the androgen receptor (AR) signaling pathway using the MDA cell line (AID 743040; also: nearly all actives have a fitted effect of over 20% in size)
Details: MDA-kb2 AR-luc cells, MMTV luciferase, 16 h; series mostly up to 70.3 µM
The source made the active and inactive calls. The call rests on the fitted dose curve; in most records, active means well fitted activation curve with a large enough effect in the repeat runs; inconclusive means weak or mixed curves; inactive means flat fitted curve, though single readings scatter.
One label from this list, please: YES = active, NO = inactive

Please review the entries below; each comes with its answer.
1. O=C(NC(=O)c1c(F)cccc1F)Nc1cc(Cl)c(OC(F)(F)C(F)F)c(Cl)c1 = NO
2. CC(C)N1C(=O)N(c2ccccc2)CSC1=NC(C)(C)C = NO
3. O=[N+]([O-])c1ccc2ccc3cccc4ccc1c2c34 = NO
4. COC(=O)N(C(=O)N1CO[C@@]2(C(=O)OC)Cc3cc(Cl)ccc3C2=N1)c1ccc(OC(F)(F)F)cc1 = NO
5. CC(=O)O[C@H]1CC[C@@]2(C)C(=CC[C@@H]3[C@@H]2CC[C@]2(C)C(=O)CC[C@@H]32)C1 = NO
6. Cc1ccc(OP(=O)(Oc2ccccc2)Oc2ccccc2)cc1 = NO
7. CCCCCCCCCCCCCCCCCCn1cc[n+](C)c1 = NO
8. c1ccc2cc3c(cc2c1)-c1cccc2cccc-3c12 = NO

[Q] What call does the record list for "FC(Cl)(Cl)Cl" ?
[A] YES

[Q] What did the test return for "O=c1oc2ccccc2c(O)c1Cc1c(O)c2ccccc2oc1=O" ?
[A] NO

[Q] Short answer needed: outcome of this test for "CCCSP(=O)(OCC)SCCC" ?
[A] NO
